Target desc: SARS-CoV-2 nucleocapsid protein (NP), full length (SARS-CoV-2, UniProt P0DTC9 1-419)
Method: BLI
Metric: pKd
# pKd = -log10(concentration in molar units)

*Q* Tell me pKd reported for UCUAAACGAAC (ssRNA) [11-mer 5' TRS-derived RNA]
*A* 8.42
